Hi there, I'd appreciate the recorded VNA IC50 for every entry that follows.
assay-target: hemagglutinin (HA) of influenza B/Massachusetts/02/12 (Yamagata) (influenza B virus)
assay-method-text: cell-based or functional assay

Some solved entries appear below for comparison.
>  <binder>
SD3092 (VHH) VHH: EVQLVESGGGLVQPGGSLRLSCAISGLSLDTYAVGWFRQAPGKEREGVSCISSGHGMTYYADSVKGRFTISTDNSKNTLYLQMNSLRAEDTAVYYCATESRYYCSDNWPAPQRYIYWGQGTLVTVSS

>  <meas-value>
> 1000 nM

$$$$
>  <binder>
SD3085 (VHH) VHH: EVQLVESGGGLVQPGGSLRLSCAASGFTFSTSWMYWLRQAPGKGLEWVSVINTDGGTYYADSVKGRFTISRDNSKNTLYLQMNSLRAEDTAVYYCAKDWGGPEPTRGQGTLVTVSS

>  <meas-value>
32 nM

$$$$

query: May I ask what VNA IC50 has been recorded for SD1087 (VHH) VHH: EVQLVESGGGLVQPGGSLRLSCVISGLSLDTYAVGWFRQAPGKEREGITCISSGHGMTYYADSVKGRFTVSTDNAKNTVYLQMNGLQPEDTARYYCATESRYYCSDNWPAPQRYIYWGQGTQVTVSS ?
result: 1000 nM
